The values you see were collected from ChEMBL document CHEMBL3351747.

Exercise: state measured IC50 for each of the compounds provided.
tested_system: Proteasome subunit beta type-9 (Homo sapiens, UniProt P28065)
Sequence (P28065 whole entry): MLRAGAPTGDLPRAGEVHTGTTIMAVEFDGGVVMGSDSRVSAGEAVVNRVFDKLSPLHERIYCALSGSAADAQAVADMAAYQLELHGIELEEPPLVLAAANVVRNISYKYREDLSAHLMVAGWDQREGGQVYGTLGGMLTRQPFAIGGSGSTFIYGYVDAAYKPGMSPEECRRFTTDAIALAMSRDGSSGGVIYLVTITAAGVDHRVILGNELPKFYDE
method_description: Inhibition of proteasome subunit beta-1i in human Raji cells using BODIPY- epoxomicin by fluorescent densitometry
Format: cell-based
Answer format: numeric, nM implied, no suffix.

# lookup: IC50 of CC1=C(C(=O)N[C@H](C)C(=O)N[C@@H](Cc2c[nH]c3ccccc23)C(=O)N[C@@H](CC2CCCCC2)C(=O)[C@@]2(C)CO2)Cc2ccccc21
7100

# lookup: IC50 of CCCC[C@H](NC(=O)[C@@H]1CCCCN1C(=O)[C@H](C)NC(=O)CN=[N+]=[N-])C(=O)N[C@@H](CC(C)C)C(=O)[C@@]1(C)CO1
67

# lookup: IC50 of COc1ccc(C[C@H](NC(=O)[C@H](C)NC(=O)CN2CCOCC2)C(=O)N[C@@H](CC2CCCCC2)C(=O)[C@@]2(C)CO2)cc1
300

# lookup: IC50 of CCCCCCC(=O)N[C@@H](C)C(=O)N[C@@H](CC(C)C)C(=O)[C@@]1(CO[Si](C)(C)C(C)(C)C)CO1
104
